testName: qHTS assay to identify small molecule antagonists of the thyroid receptor (TR) signaling pathway - cell viability counter screen (AID 743064); also: nearly all actives have a fitted effect of over 50% in size
setupConditions: GH3.TRE-Luc viability, CellTiter-Fluor, 24 h; series mostly up to 70.3 µM
Results filed as inconclusive are left out. The source made the active and inactive calls. Calls follow the shape of the dose curve; as a rule, active = well fitted cell-killing curve with a large enough effect in the repeat runs; inconclusive = weak or mixed curves, or effect the other way; inactive = no such curve, though single readings can be large or run the other way.
Outcome codes: active, inactive

• NC(CO)(CO)CO = inactive
• Cn1c(=O)c2c(ncn2C)n(C)c1=O = inactive
• Nc1ccc([N+](=O)[O-])cc1O = active
• CS(=O)(=O)OCCCCOS(C)(=O)=O = inactive
• Nc1ccc(S(N)(=O)=O)cc1 = inactive
• O=c1[nH]cc(F)c(=O)[nH]1 = active
• CN(N=O)C(=O)N[C@@H]1[C@@H](O)[C@H](O)[C@@H](CO)O[C@@H]1O = inactive
• O=CC(=O)c1ccccc1 = inactive
• C/C=C/C=C/C(=O)O = inactive
• O=C(O)c1ccccc1 = inactive
• CN[C@H]1CC[C@@H](c2ccc(Cl)c(Cl)c2)c2ccccc21 = active
• CN1[C@@H]2CC(OC(=O)[C@H](CO)c3ccccc3)C[C@H]1[C@@H]1O[C@@H]12 (some centres not stated) = inactive
